Test system: Pseudomonas aeruginosa ATCC 9027
Type: cell-based
Settings: Mueller Hinton Broth; complete growth inhibition not achieved
Ends that are not written are not given here.
result_type: peptide concentration giving 75% inhibition of growth (value in parentheses)

{"substance": "YIVYKIRWARKRRK-OH [BOL-73, YIVYKIRWARKRRK]", "test_result": "(9.375) μg/ml"}
{"substance": "YIVYKIRRAWKRWKALK-OH [BOL-55, YIVYKIRRAWKRWKALK]", "test_result": "(9.375) μg/ml"}
{"substance": "KYIVYKIRWARKRRKALK-OH [BOL-87, KYIVYKIRWARKRRKALK]", "test_result": "(9.375) μg/ml"}

* * *

Test system: Staphylococcus aureus ATCC 25923
Assay type: cell-based
Conditions: ATCC 25923, 2 h
Source text: The bolisin analogues of the present invention were examined for their suitability as antibiotic therapeutical agents by means of various biological tests. […] The antibiotic activity of bolisin analogues was examined by determining the minimum inhibition concentration. […] This method allows to obtain a quantitative result about the antimicrobial potency of the peptides. […]
Ends that are not written are not given here.
For each of the substances below, state its log10 minimum inhibition concentration.
The figures below represent log10 of minimum inhibition concentration, where minimum inhibition concentration is stated in µg/mL.

Task: Please report the measured log10 minimum inhibition concentration for YIVYKIRSAWKRWKAL [BOL-67, YIVYKIRSAWKRWKAL] tested on Staphylococcus aureus ATCC 25923.
Output: 1.40

Task: Please report log10 minimum inhibition concentration with Staphylococcus aureus ATCC 25923 for item YIVYKIRFAFKRSKAL [BOL-91, YIVYKIRFAFKRSKAL] .
Output: 1.40

Task: System Staphylococcus aureus ATCC 25923. Read-out log10 minimum inhibition concentration. Item YIVRKIRSAWKRWKALK-OH [BOL-79, YIVRKIRSAWKRWKALK] . Report value.
Output: 0.97

Task: Report log10 minimum inhibition concentration on Staphylococcus aureus ATCC 25923 for this entry: YIVYKIRSAWKRSKALK-OH [BOL-29, YIVYKIRSAWKRSKALK]
Output: 0.97

Task: Identify measured log10 minimum inhibition concentration obtained with Staphylococcus aureus ATCC 25923 for YIVYKIRSARKRWKALK-OH [BOL-46, YIVYKIRSARKRWKALK] .
Output: 2.48

Task: For Staphylococcus aureus ATCC 25923, give log10 minimum inhibition concentration of the listed substance: YIVYKRRSADKRRKALK-OH [BOL-12, YIVYKRRSADKRRKALK]
Output: 1.27

Task: Name the value of log10 minimum inhibition concentration reported for YIVYKIRSADKRWKALK-OH [BOL-30, YIVYKIRSADKRWKALK] when tested on Staphylococcus aureus ATCC 25923.
Output: 2.00

Task: Consider the substance YIVWKIRSARKRRKALK-OH [BOL-74, YIVWKIRSARKRRKALK] tested on Staphylococcus aureus ATCC 25923; state its log10 minimum inhibition concentration.
Output: 2.48

Task: Provide log10 minimum inhibition concentration, system Staphylococcus aureus ATCC 25923, entry YIVYKIRSAPKRSKALK-OH [BOL-21, YIVYKIRSAPKRSKALK]
Output: 1.88

Task: Look up and report log10 minimum inhibition concentration, with Staphylococcus aureus ATCC 25923 as system, for KYIVYKIRSAWKRRKALK-OH [BOL-86, KYIVYKIRSAWKRRKALK]
Output: 1.88

Task: Find the measured log10 minimum inhibition concentration of YIVYKIRSARKRRKALK-OH [BOL-13, YIVYKIRSARKRRKALK] with Staphylococcus aureus ATCC 25923 as test system.
Output: 1.27

Task: Provide log10 minimum inhibition concentration, recorded with Staphylococcus aureus ATCC 25923, of YIVYKIRSAWKRWK-OH [BOL-70, YIVYKIRSAWKRWK]
Output: 2.00

Task: Fetch value of log10 minimum inhibition concentration on Staphylococcus aureus ATCC 25923 for YIVYKIRSARKRWK-OH [BOL-71, YIVYKIRSARKRWK] .
Output: 2.30

Task: Please look at YIVYKRRSARKRRKALK-OH [BOL-15, YIVYKRRSARKRRKALK] and tell me its recorded log10 minimum inhibition concentration on Staphylococcus aureus ATCC 25923.
Output: 1.27

Task: Provide log10 minimum inhibition concentration, tested on Staphylococcus aureus ATCC 25923, for YIVYKIRWAKKRKKALK-OH [BOL-59, YIVYKIRWAKKRKKALK] .
Output: 1.70

Task: Report the value of log10 minimum inhibition concentration obtained on Staphylococcus aureus ATCC 25923 for YIVYKIRRAWKRSKALK-OH [BOL-53, YIVYKIRRAWKRSKALK] .
Output: 2.18

Task: Give log10 minimum inhibition concentration for this entry on Staphylococcus aureus ATCC 25923: YIRYKRRSARKRRKALK-OH [BOL-18, YIRYKRRSARKRRKALK]
Output: 1.27
